Each record here notes measured IC50.
# measured-on: PI3K delta (Homo sapiens, UniProt O00329)
# Construct: for the full-length p110-d subunit are generated and fused by overlapping PCR; p85(iSH2) fusion partner (see partner chain) (N); His tag (C); made in house; host or cells: baculovirus; Tn5 (Trichoplusia ni) or TiniPro insect cells
# Sequence (O00329 with tags, fused parts or gaps limits assumed): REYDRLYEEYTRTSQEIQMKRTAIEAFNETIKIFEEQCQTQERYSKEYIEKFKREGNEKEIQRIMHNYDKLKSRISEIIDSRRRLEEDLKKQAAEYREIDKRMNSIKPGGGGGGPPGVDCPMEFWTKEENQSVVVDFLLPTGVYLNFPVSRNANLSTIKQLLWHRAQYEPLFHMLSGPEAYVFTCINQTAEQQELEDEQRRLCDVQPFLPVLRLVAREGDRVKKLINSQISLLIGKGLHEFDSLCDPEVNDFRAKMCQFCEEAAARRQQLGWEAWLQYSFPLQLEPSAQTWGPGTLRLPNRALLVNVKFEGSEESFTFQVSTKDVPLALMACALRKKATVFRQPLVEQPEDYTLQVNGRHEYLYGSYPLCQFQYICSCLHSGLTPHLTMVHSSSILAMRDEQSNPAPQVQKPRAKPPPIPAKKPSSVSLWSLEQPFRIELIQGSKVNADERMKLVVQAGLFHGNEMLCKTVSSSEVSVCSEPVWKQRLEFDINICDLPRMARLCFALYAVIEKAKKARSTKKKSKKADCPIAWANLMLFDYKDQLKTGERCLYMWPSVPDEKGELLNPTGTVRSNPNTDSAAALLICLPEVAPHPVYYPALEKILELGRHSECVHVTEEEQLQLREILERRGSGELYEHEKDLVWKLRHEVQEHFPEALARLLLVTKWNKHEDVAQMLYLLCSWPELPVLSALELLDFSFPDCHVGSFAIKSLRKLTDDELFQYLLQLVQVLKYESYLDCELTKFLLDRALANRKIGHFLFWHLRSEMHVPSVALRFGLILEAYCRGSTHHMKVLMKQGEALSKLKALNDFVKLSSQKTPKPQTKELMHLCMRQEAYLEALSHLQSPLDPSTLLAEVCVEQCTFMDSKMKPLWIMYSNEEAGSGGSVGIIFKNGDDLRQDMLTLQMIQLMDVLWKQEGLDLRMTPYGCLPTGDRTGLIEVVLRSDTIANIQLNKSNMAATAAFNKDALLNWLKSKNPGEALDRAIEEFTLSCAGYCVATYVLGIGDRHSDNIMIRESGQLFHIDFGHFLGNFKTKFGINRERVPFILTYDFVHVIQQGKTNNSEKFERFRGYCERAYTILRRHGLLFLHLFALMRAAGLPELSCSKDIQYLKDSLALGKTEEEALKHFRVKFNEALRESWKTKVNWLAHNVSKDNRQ
# protocol-summary: PI3K delta kinase assay (Kinase-Glo luminescence)
# Format: biochemical
The reply should contain only the number, in nM.

[[record]]
compound = "Cc1ccc(-c2ccc3ncc4c(c3c2)n(-c2cn(C)nc2C)c(=O)n4C)cn1"
quantity_measured = "IC50"
measured_number = 13

[[record]]
compound = "COc1ccc(-c2ccc3ncc4c(c3c2)n(-c2c(C)cnn2C)c(=O)n4C)cc1OC"
quantity_measured = "IC50"
measured_number = 169

[[record]]
compound = "Cc1nn(C)cc1-n1c(=O)n(C)c2cnc3ccc(-c4ccc(N5CCCC5)nc4)cc3c21"
quantity_measured = "IC50"
measured_number = 236

[[record]]
compound = "Cc1nn(CCO)cc1-n1c(=O)n(C)c2cnc3ccc(-c4cncc(N5CCOCC5)c4)cc3c21"
quantity_measured = "IC50"
measured_number = 126

[[record]]
compound = "COc1ccc(-c2ccc3ncc4c(c3c2)n(-c2cn(C(C)C)nc2C)c(=O)n4C)cn1"
quantity_measured = "IC50"
measured_number = 15

[[record]]
compound = "COCc1cc(-c2ccc3ncc4c(c3c2)n(-c2cn(C)nc2C)c(=O)n4C)cnc1OC"
quantity_measured = "IC50"
measured_number = 6


Now turn to the next compound.
Input: Lab request: please report IC50 under test system PI3K delta (Homo sapiens, UniProt O00329) for CCOc1cccc(-c2ccc3ncc4c(c3c2)n(-c2cn(C)nc2C)c(=O)n4C)c1
Output: 215

----------
# measured-on: PI3K alpha (Homo sapiens)
# Construct: p85(iSH2) fusion partner (see partner chain) (N); His tag (C); Tn5 (Trichoplusia ni) or TiniPro insect cells
# Sequence (P42336 with tags, fused parts or gaps limits assumed): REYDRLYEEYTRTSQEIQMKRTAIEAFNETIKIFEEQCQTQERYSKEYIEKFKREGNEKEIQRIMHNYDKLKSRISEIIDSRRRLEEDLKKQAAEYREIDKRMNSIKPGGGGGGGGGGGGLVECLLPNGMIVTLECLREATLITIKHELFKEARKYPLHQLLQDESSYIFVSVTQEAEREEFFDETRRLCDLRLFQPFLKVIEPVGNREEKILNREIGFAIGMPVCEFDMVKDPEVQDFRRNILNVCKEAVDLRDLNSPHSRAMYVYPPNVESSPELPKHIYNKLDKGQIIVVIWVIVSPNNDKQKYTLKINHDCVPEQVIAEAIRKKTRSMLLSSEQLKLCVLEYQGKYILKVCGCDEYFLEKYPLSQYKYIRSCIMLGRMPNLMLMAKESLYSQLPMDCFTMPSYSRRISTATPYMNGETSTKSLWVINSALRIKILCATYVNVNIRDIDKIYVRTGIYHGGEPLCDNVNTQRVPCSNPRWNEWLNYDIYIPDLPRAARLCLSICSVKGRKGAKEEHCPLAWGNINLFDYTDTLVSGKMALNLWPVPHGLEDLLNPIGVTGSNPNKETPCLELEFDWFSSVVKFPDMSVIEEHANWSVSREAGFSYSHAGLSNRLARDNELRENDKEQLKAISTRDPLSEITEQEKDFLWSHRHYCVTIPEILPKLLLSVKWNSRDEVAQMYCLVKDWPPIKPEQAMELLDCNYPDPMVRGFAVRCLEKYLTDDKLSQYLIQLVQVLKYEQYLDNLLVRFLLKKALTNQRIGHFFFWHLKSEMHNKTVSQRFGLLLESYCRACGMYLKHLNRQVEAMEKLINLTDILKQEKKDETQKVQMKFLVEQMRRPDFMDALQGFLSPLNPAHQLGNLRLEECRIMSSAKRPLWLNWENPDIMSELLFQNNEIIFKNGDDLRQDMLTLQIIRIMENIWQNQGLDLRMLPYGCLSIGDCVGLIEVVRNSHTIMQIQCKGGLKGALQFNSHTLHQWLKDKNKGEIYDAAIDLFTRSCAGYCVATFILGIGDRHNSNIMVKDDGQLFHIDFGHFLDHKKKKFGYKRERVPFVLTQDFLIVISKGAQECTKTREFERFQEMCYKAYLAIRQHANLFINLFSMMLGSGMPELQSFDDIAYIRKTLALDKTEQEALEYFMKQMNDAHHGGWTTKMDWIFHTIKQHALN
# protocol-summary: PI3K alpha kinase assay (Kinase-Glo luminescence)
Response field label: string, one of Y (IC50 strictly below 40 nM) or N.

The examples below pair each entry with its known result.
[[record]]
compound = "COc1ccc(-c2ccc3ncc4c(c3c2)n(-c2c(C)cnn2C)c(=O)n4C)cn1 [Example 2.1]"
assigned_label = "N"

[[record]]
compound = "Cc1nn(C)cc1-n1c(=O)n(C)c2cnc3ccc(-c4cnc(N(C)C)nc4)cc3c21 [Example 6.2]"
assigned_label = "Y"

[[record]]
compound = "Cc1nn(C)cc1-n1c(=O)n(C)c2cnc3ccc(-c4cncc(OC5CCC5)c4)cc3c21 [Example 60.1]"
assigned_label = "Y"


Input: Is IC50 strictly under 40 nM for the entry Cc1nn(C)cc1-n1c(=O)n(C)c2cnc3ccc(-c4cnc5cc[nH]c5c4)cc3c21 [Example 99] ?
Output: Y

Input: Is IC50 strictly under 40 nM for the entry CNc1cc(-c2ccc3ncc4c(c3c2)n(-c2cn(C)nc2Cl)c(=O)n4C)cnc1CO [Example 158.3] ?
Output: Y

Input: Is IC50 strictly under 40 nM for the entry CCNc1cc(-c2ccc3ncc4c(c3c2)n(-c2c(C)nn(CC(=O)N(C)C)c2C)c(=O)n4C)cnc1C [Example 87.5] ?
Output: N

Input: Is IC50 strictly under 40 nM for the entry CNc1cncc(-c2ccc3ncc4c(c3c2)n(-c2cn(C(C)C)nc2C)c(=O)n4C)c1 [Example 180.2] ?
Output: Y

Input: Is IC50 strictly under 40 nM for the entry CCOc1cc(-c2ccc3ncc4c(c3c2)n(-c2cn(CCO)nc2C)c(=O)n4C)cnc1C [Example 211.2] ?
Output: Y

Input: Is IC50 strictly under 40 nM for the entry CCNc1cc(-c2ccc3ncc4c(c3c2)n(-c2cn(C(C)C)nc2C)c(=O)n4C)cnc1CO [Example 155.3] ?
Output: Y

Input: Is IC50 strictly under 40 nM for the entry [2H]C([2H])([2H])OCc1ncc(-c2ccc3ncc4c(c3c2)n(-c2cn(C)nc2Cl)c(=O)n4C)cc1OC [Example 199] ?
Output: Y

Input: Is IC50 strictly under 40 nM for the entry Cc1noc(C)c1-n1c(=O)n(C)c2cnc3ccc(-c4cnc(N)c(Cl)c4)cc3c21 [Example 148.4] ?
Output: N

Input: Is IC50 strictly under 40 nM for the entry Cc1nn(C)cc1-n1c(=O)n(C)c2cnc3ccc(-c4cccc(C(N)=O)c4)cc3c21 [Example 46] ?
Output: N

Input: Is IC50 strictly under 40 nM for the entry CCNc1cc(-c2ccc3ncc4c(c3c2)n(-c2c(C)nn(CCOC)c2C)c(=O)n4C)cnc1OC [Example 90.2] ?
Output: N

Input: Is IC50 strictly under 40 nM for the entry Cc1nn(C)cc1-n1c(=O)n(C)c2cnc3ccc(-c4ccc(CO)nc4)cc3c21 [Example 16.2] ?
Output: Y

Input: Is IC50 strictly under 40 nM for the entry Cc1nn(C)cc1-n1c(=O)n(C)c2cnc3ccc(-c4ccc(C(N)=O)nc4)cc3c21 [Example 14] ?
Output: Y

Input: Is IC50 strictly under 40 nM for the entry Cc1nn(C)c(C)c1-n1c(=O)n(C)c2cnc3ccc(-c4cnc(N)c(CO)c4)cc3c21 [Example 169.2] ?
Output: Y

Input: Is IC50 strictly under 40 nM for the entry Cc1nn(C)cc1-n1c(=O)n(C)c2cnc3ccc(-c4cnn(CCO)c4)cc3c21 [Example 106] ?
Output: N
